Test: Half life in simulated gastric fluid at 20 uM by LC-MS/MS analysis
Format: ADME
measured.metric: half-life at 20 µM

1) CC(=O)NCCCC[C@H](NC(=O)C1(NC(=O)[C@H](Cc2ccc3ccccc3c2)NC(=O)[C@H](Cc2ccc(C(N)=O)cc2)NC(=O)[C@@H](NC(=O)[C@H](CCC(N)=O)NC(=O)[C@H](Cc2c[nH]c3ccccc23)NC(=O)[C@@H](NC(=O)[C@H](CC(N)=O)NC(=O)[C@@H](NC(C)=O)C(C)(C)S)[C@@H](C)O)C(C)(C)S)CCOCC1)C(=O)N[C@@H](CC(N)=O)C(=O)N[C@@H](CC(N)=O)C(N)=O    180 to 360 min

Now consider the entry below.
[Q] What value of measured half-life at 20 µM is listed for CC(=O)NCCCC[C@H](NC(=O)C(C)(C)NC(=O)[C@H](Cc1ccc2ccccc2c1)NC(=O)[C@H](Cc1ccc(OCCN)cc1)NC(=O)[C@@H](NC(=O)[C@H](CCC(N)=O)NC(=O)[C@H](Cc1c[nH]c2ccccc12)NC(=O)[C@@H](NC(=O)[C@H](CCC(N)=O)NC(=O)[C@@H](NC(C)=O)C(C)(C)S)[C@@H](C)O)C(C)(C)S)C(=O)N[C@@H](CC(N)=O)C(=O)N[C@@H](CCC(N)=O)C(N)=O ?
[A] > 360 min

---

# key: entry, value: half-life at 20 µM
Assay: Half life in simulated intestinal fluid at 20 uM by LC-MS/MS analysis
Assay type: ADME

[Q] Value lookup for half-life at 20 µM; key = CC(=O)NCCCC[C@H](NC(=O)[C@](C)(CCCN)NC(=O)[C@H](Cc1c[nH]c2ccccc12)NC(=O)[C@H](Cc1ccc(O)cc1)NC(=O)[C@@H]1CSCC[C@H](NC(C)=O)C(=O)N[C@@H](CCC(N)=O)C(=O)N[C@@H]([C@@H](C)O)C(=O)N[C@@H](Cc2c[nH]c3ccccc23)C(=O)N[C@@H](CCC(N)=O)C(=O)N1)C(=O)N[C@@H](CC(N)=O)C(=O)NCC(N)=O
[A] 3 to 6 h

[Q] Name the recorded half-life at 20 µM for CC(=O)N[C@H](C(=O)N[C@@H](CCC(N)=O)C(=O)N[C@H](C(=O)N[C@@H](Cc1c[nH]c2ccccc12)C(=O)N[C@@H](CCC(N)=O)C(=O)N[C@H](C(=O)N[C@@H](Cc1ccc(OCCN)cc1)C(=O)N[C@@H](Cc1ccc2ccccc2c1)C(=O)NC(C)(C)C(=O)N[C@@H](CCC(=O)O)C(=O)N[C@@H](CC(N)=O)C(=O)N[C@@H](CC(N)=O)C(N)=O)C(C)(C)S)[C@@H](C)O)C(C)(C)S .
[A] > 6 h

[Q] Suppose we examine the compound CC(=O)NCCCC[C@H](NC(=O)[C@H](CCC(C)C)NC(=O)[C@H](Cc1ccc2ccccc2c1)NC(=O)[C@H](Cc1ccc(OCCN)cc1)NC(=O)[C@@H](NC(=O)[C@H](CCC(N)=O)NC(=O)[C@H](Cc1c[nH]c2ccccc12)NC(=O)[C@@H](NC(=O)[C@H](CC(N)=O)NC(=O)[C@@H](NC(C)=O)C(C)(C)S)[C@@H](C)O)C(C)(C)S)C(=O)N[C@@H](CC(N)=O)C(=O)NCCC(N)=O ; what half-life at 20 µM value has been reported?
[A] < 1 h

[Q] Which value of half-life at 20 µM has been reported for CC(=O)NCCCC[C@H](NC(=O)[C@](C)(CC(C)C)NC(=O)[C@H](Cc1ccc2ccccc2c1)NC(=O)[C@H](Cc1ccc(OCCN)cc1)NC(=O)[C@@H](NC(=O)[C@H](CCC(N)=O)NC(=O)[C@H](Cc1c[nH]c2ccccc12)NC(=O)[C@@H](NC(=O)[C@H](CCC(N)=O)NC(=O)[C@@H](NC(C)=O)C(C)(C)S)[C@@H](C)O)C(C)(C)S)C(=O)N[C@@H](CC(N)=O)C(=O)N[C@@H](CC(N)=O)C(N)=O in the records?
[A] 2 to 3 h

[Q] Look up half-life at 20 µM for this compound: COc1ccc(C[C@H](NC(=O)[C@@H]2CSCC[C@H](NC(C)=O)C(=O)N[C@@H](CCC(N)=O)C(=O)N[C@@H]([C@@H](C)O)C(=O)N[C@@H](Cc3c[nH]c4ccccc34)C(=O)N[C@@H](CCC(N)=O)C(=O)N2)C(=O)N[C@@H](Cc2c[nH]c3ccccc23)C(=O)N[C@@](C)(CCCCN)C(=O)N[C@@H](CCC(=O)O)C(=O)N[C@@H](CC(N)=O)C(=O)NCC(N)=O)cc1
[A] > 6 h

---

Test: Half life in simulated intestinal fluid at 20 uM by LC-MS/MS analysis
Format: ADME
This section presents compounds with their documented half-life at 20 µM values.

Please review the following examples before continuing.
1. COc1ccc(C[C@H](NC(=O)[C@@H](NC(=O)[C@H](CCC(N)=O)NC(=O)[C@H](Cc2c[nH]c3ccccc23)NC(=O)[C@@H](NC(=O)[C@H](CC(N)=O)NC(=O)[C@@H](NC(C)=O)C(C)(C)S)[C@@H](C)O)C(C)(C)S)C(=O)N[C@@H](Cc2ccc3ccccc3c2)C(=O)N[C@@](C)(CC(C)C)C(=O)N[C@@H](CCCCNC(C)=O)C(=O)N[C@@H](CC(N)=O)C(=O)N[C@@H](CC(N)=O)C(N)=O)cc1    > 6 h
2. CC(=O)N[C@H](C(=O)N[C@@H](CCC(N)=O)C(=O)N[C@H](C(=O)N[C@@H](Cc1c[nH]c2ccccc12)C(=O)N[C@@H](CCC(N)=O)C(=O)N[C@H](C(=O)N[C@@H](Cc1ccc(O)cc1)C(=O)N[C@@H](Cc1ccc2ccccc2c1)C(=O)N[C@@](C)(CCCCN)C(=O)N[C@@H](CCC(=O)O)C(=O)N[C@@H](CC(N)=O)C(=O)NCC(N)=O)C(C)(C)S)[C@@H](C)O)C(C)(C)S    3 to 6 h
3. CC(=O)N[C@H]1CCSC[C@@H](C(=O)N[C@@H](Cc2ccc(OCCN)cc2)C(=O)N[C@@H](Cc2ccc3ccccc3c2)C(=O)NC2(C(=O)N[C@@H](CCC(=O)O)C(=O)N[C@@H](CC(N)=O)C(=O)N[C@@H](CC(N)=O)C(N)=O)CCC2)NC(=O)[C@H](CCC(N)=O)NC(=O)[C@H](Cc2c[nH]c3ccccc23)NC(=O)[C@H]([C@@H](C)O)NC(=O)[C@H](CCC(N)=O)NC1=O    < 1 h
4. COc1ccc(C[C@H](NC(=O)[C@@H](NC(=O)[C@H](CCC(N)=O)NC(=O)[C@H](Cc2c[nH]c3ccccc23)NC(=O)[C@@H](NC(=O)[C@H](CC(N)=O)NC(=O)[C@@H](NC(C)=O)C(C)(C)S)[C@@H](C)O)C(C)(C)S)C(=O)N[C@@H](Cc2ccc3ccccc3c2)C(=O)NC(C)(C)C(=O)N[C@@H](CCCCNC(C)=O)C(=O)N[C@@H](CC(N)=O)C(=O)N[C@@H](CC(N)=O)C(N)=O)cc1    > 6 h
5. CC(=O)NCCCC[C@H](NC(=O)[C@@](C)(NC(=O)[C@H](Cc1ccc2ccccc2c1)NC(=O)[C@H](Cc1ccc(C(N)=O)cc1)NC(=O)[C@@H](NC(=O)[C@H](CCC(N)=O)NC(=O)[C@H](Cc1c[nH]c2ccccc12)NC(=O)[C@@H](NC(=O)[C@H](CCC(N)=O)NC(=O)[C@@H](NC(C)=O)C(C)(C)S)[C@@H](C)O)C(C)(C)S)C(C)C)C(=O)N[C@@H](CC(N)=O)C(=O)N[C@@H](CC(N)=O)C(N)=O    > 6 h

Pending compound:
[Q] # half-life at 20 µM lookup, item COc1ccc(C[C@H](NC(=O)[C@@H]2CSCC[C@H](NC(C)=O)C(=O)N[C@@H](CCC(N)=O)C(=O)N[C@@H]([C@@H](C)O)C(=O)N[C@@H](Cc3c[nH]c4ccccc34)C(=O)N[C@@H](CCC(N)=O)C(=O)N2)C(=O)N[C@@H](Cc2cccc3ccccc23)C(=O)N[C@@](C)(CCCCN)C(=O)N[C@@H](CCCCNC(C)=O)C(=O)N[C@@H](CC(N)=O)C(=O)NCC(N)=O)cc1
[A] > 6 h

---

Assay: Half life in simulated intestinal fluid at 20 uM by LC-MS/MS analysis
Format: ADME
*1 amine or outer side, *2 acyl side, *3 side chain or, on linkers, in order; H or OH if unused. Where a SMILES comes first, the peptide text is derived from it. Bridges are numbered along the chain shown (N, C = ends). [ ]: non-standard residue; d: D form. Abu(4-yl) = O=C([C@H](CC[*:3])N[*:1])[*:2]; 2Nal = N[C@@H](Cc1ccc2ccccc2c1)C(=O)O; AEF = NCCOc1ccc(C[C@H](N)C(=O)O)cc1; αMeK = C[C@](N)(CCCCN)C(=O)O
Listed next: entries and their corresponding half-life at 20 µM.

1. CC(=O)NCCCC[C@H](NC(=O)C(C)(C)NC(=O)[C@H](Cc1ccc2ccccc2c1)NC(=O)[C@H](Cc1ccc(OCCN)cc1)NC(=O)[C@@H]1CSCC[C@H](NC(C)=O)C(=O)N[C@@H](CCC(N)=O)C(=O)N[C@@H]([C@@H](C)O)C(=O)N[C@@H](Cc2c[nH]c3ccccc23)C(=O)N[C@@H](CCC(N)=O)C(=O)N1)C(=O)N[C@@H](CCC(N)=O)C(=O)NCC(N)=O    2 to 3 h
2. CC(=O)N[C@H](C(=O)N[C@@H](CCC(N)=O)C(=O)N[C@H](C(=O)N[C@@H](Cc1c[nH]c2ccccc12)C(=O)N[C@@H](CCC(N)=O)C(=O)N[C@H](C(=O)N[C@@H](Cc1ccc(O)cc1)C(=O)N[C@@H](Cc1c[nH]c2ccccc12)C(=O)N[C@@H](CCC(C)C)C(=O)N[C@@H](CCC(=O)O)C(=O)N[C@@H](CC(N)=O)C(=O)NCC(N)=O)C(C)(C)S)[C@@H](C)O)C(C)(C)S    < 1 h
3. CC(=O)N[C@H](C(=O)N[C@@H](CCC(N)=O)C(=O)N[C@H](C(=O)N[C@@H](Cc1c[nH]c2ccccc12)C(=O)N[C@@H](CCC(N)=O)C(=O)N[C@H](C(=O)N[C@@H](Cc1ccc(O)cc1)C(=O)N[C@@H](Cc1ccc2ccccc2c1)C(=O)N[C@@](C)(CCCN)C(=O)N[C@@H](CCC(=O)O)C(=O)N[C@@H](CC(N)=O)C(=O)NCC(N)=O)C(C)(C)S)[C@@H](C)O)C(C)(C)S    3 to 6 h
4. CC(=O)N[C@H]1CCSC[C@@H](C(=O)N[C@@H](Cc2ccc(OCCN)cc2)C(=O)N[C@@H](Cc2ccc3ccccc3c2)C(=O)N[C@@](C)(CCCCN)C(=O)N[C@@H](CCC(=O)O)C(=O)N[C@@H](CC(N)=O)C(=O)N[C@@H](CCC(N)=O)C(N)=O)NC(=O)[C@H](CCC(N)=O)NC(=O)[C@H](Cc2c[nH]c3ccccc23)NC(=O)[C@H]([C@@H](C)O)NC(=O)[C@H](CCC(N)=O)NC1=O (Ac-[Abu(4-yl)]QTWQC[AEF][2Nal][αMeK]ENQ-NH2; thioether 1-6)    3 to 6 h

# ---- query compound ----
[Q] # lookup: half-life at 20 µM of CC(=O)N[C@H]1CCSC[C@@H](C(=O)N[C@@H](Cc2ccc(OCCN)cc2)C(=O)N[C@@H](Cc2c[nH]c3ccccc23)C(=O)N[C@@](C)(CC(C)C)C(=O)N[C@@H](CCC(=O)O)C(=O)N[C@@H](CC(N)=O)C(=O)NCC(N)=O)NC(=O)[C@H](CCC(N)=O)NC(=O)[C@H](Cc2c[nH]c3ccccc23)NC(=O)[C@H]([C@@H](C)O)NC(=O)[C@H](CCC(N)=O)NC1=O
[A] > 6 h
